The reported numbers originate from patent US20080269267A1.

Target: BaF3 cells transfected with wild type p210 BCR-Abl (Homo sapiens)
Construct: fused on or other part: P11274 (Breakpoint cluster region protein)
Assay: Ba/F3 p210 whole cell proliferation assay (Cell Titer Blue, 72 hours)
Type: cell-based
Conditions: 72 hours incubation; read-out: Ba/F3 p210 whole cell proliferation assay, antiproliferation IC50
Counter-ions that a name gives are not always drawn.
Provide the recorded GI50 for the entries that follow.

[Q] Using the record for Cn1cc(-c2cc(Oc3ccc(NC(=O)Nc4cc(C(C)(C)C)nn4-c4cccc(CO)c4)c(F)c3)ccn2)cn1 , report its GI50.
[A] < 100 nM

[Q] // query: CCc1cc(NC(=O)Nc2ccc(Oc3ccnc(-c4cnn(C(C)C)c4)c3)cc2F)n(-c2cccc(C#N)c2)n1
[A] < 100 nM

[Q] Likewise for CC(C)c1cc(NC(=O)Nc2ccc(Oc3ccnc(-c4cnn(C)c4)c3)c(F)c2F)n(-c2cccc(C#N)c2)n1 ?
[A] < 100 nM

[Q] Try the compound CC(C)(C)c1cc(NC(=O)Nc2ccc(Oc3ccnc(-c4cn[nH]c4)c3)cc2F)n(-c2cccc(C#N)c2)n1 [Example 3, hydrochloride]
[A] < 100 nM

###

Target: BaF3 cells transfected with T315I p210 BCR-Abl (Homo sapiens, UniProt P00519, T315I, cells depend on it)
Construct: fused on or other part: P11274 (Breakpoint cluster region protein)
Experiment: Ba/F3 p210 T315I whole cell proliferation assay (Cell Titer Blue, 72 hours)
Assay type: cell-based
Conditions: 72 hours incubation; read-out: Ba/F3 p210 T315I whole cell proliferation assay, antiproliferation IC50
Where a name gives a salt, the structure may show the parent alone.
Measure: GI50

[Q] Need GI50 of CC(C)c1cc(NC(=O)Nc2ccc(Oc3ccnc(-c4cnn(C)c4)c3)cc2F)n(-c2cccc(F)c2)n1 , thanks.
[A] < 100 nM

[Q] Repeat with CC(C)c1cc(NC(=O)Nc2ccc(Oc3ccnc(-c4cnn(C)c4)c3)c(F)c2)n(-c2cccc(C#N)c2)n1
[A] < 100 nM

[Q] Do the same for Cn1cc(-c2cc(Oc3ccc(NC(=O)Nc4cc(C(C)(C)C)nn4-c4ccccc4)c(F)c3)ccn2)cn1 please
[A] < 100 nM

[Q] Param item: Cn1cc(-c2cc(Oc3ccc(NC(=O)Nc4cc(C(C)(C)C)nn4-c4cccc(C#N)c4)c(F)c3)ccn2)cn1 [Example 4, hydrochloride]
[A] < 100 nM

[Q] // repeat for CC(C)(C)c1cc(NC(=O)Nc2ccc(Oc3ccnc(-c4cn[nH]c4)c3)cc2F)n(-c2cccc(C#N)c2)n1 [Example 3, hydrochloride] and report
[A] < 100 nM

[Q] For Cn1cc(-c2cc(Oc3ccc(NC(=O)Nc4cc(-c5ccccc5F)nn4C)c(F)c3F)ccn2)cn1 then?
[A] < 10000 nM

[Q] Now the same for CCc1cc(NC(=O)Nc2ccc(Oc3ccnc(-c4cnn(C(C)C)c4)c3)cc2F)n(-c2cccc(C#N)c2)n1
[A] < 100 nM

[Q] Do the same for CC(C)c1cc(NC(=O)Nc2ccc(Oc3ccnc(-c4cnn(C)c4)c3)cc2F)n(-c2cccc(C#N)c2)n1 please
[A] < 100 nM

[Q] One more compound: CC(C)n1cc(NC(=O)Nc2ccc(Oc3ccnc(-c4cnn(C)c4)c3)cc2F)c(-c2ccccc2)n1
[A] < 100 nM

[Q] Next record, please: Cn1cc(-c2cc(Oc3ccc(NC(=O)Nc4cc(C(C)(C)C)nn4-c4cccc(CO)c4)c(F)c3)ccn2)cn1
[A] < 100 nM

[Q] Check Cc1ccc(-n2nc(C(C)C)cc2NC(=O)Nc2ccc(Oc3ccnc(-c4cnn(C)c4)c3)cc2F)cc1C#N too.
[A] < 100 nM

[Q] Cool, now CCCn1cc(-c2cc(Oc3ccc(NC(=O)Nc4cc(CC)nn4-c4cccc(C#N)c4)c(F)c3)ccn2)cn1
[A] < 100 nM

[Q] Field entry: Cc1c(Oc2ccnc(-c3cnn(C)c3)c2)ccc(NC(=O)Nc2cc(C(C)C)nn2-c2cccc(C#N)c2)c1F
[A] < 100 nM

[Q] For Cn1cc(-c2cc(Oc3ccc(NC(=O)Nc4cc(C(C)(C)C)nn4-c4ccc(C#N)cc4)c(F)c3)ccn2)cn1 then?
[A] < 100 nM

[Q] Here is the next compound: CC(C)c1cc(NC(=O)Nc2ccc(Oc3ccnc(-c4cnn(C)c4)c3)cc2F)n(-c2ccc(F)c(C#N)c2)n1
[A] < 100 nM

[Q] And what about the compound CCc1cc(NC(=O)Nc2ccc(Oc3ccnc(-c4cnn(C)c4)c3)cc2F)n(-c2cccc(C#N)c2)n1 ?
[A] < 100 nM

[Q] Also Cc1ncc(NC(=O)Nc2ccc(Oc3ccnc(-c4cnn(C)c4)c3)cc2F)c(-c2ccccc2)n1 ?
[A] < 100 nM

[Q] Let us now turn to CC(C)n1ncc(NC(=O)Nc2ccc(Oc3ccnc(-c4cnn(C)c4)c3)cc2F)c1-c1ccccc1
[A] < 1000 nM

[Q] Another compound to look at: CCc1cc(NC(=O)Nc2ccc(Oc3ccnc(-c4cnn(C)c4)c3)cc2F)n(-c2ccc(CO)cc2)n1
[A] < 100 nM

[Q] Moving on to the next compound: CC(C)c1cc(NC(=O)Nc2ccc(Oc3ccnc(-c4cnn(C)c4)c3)c(F)c2F)n(-c2cccc(C#N)c2)n1
[A] < 100 nM

[Q] Record: Cn1cc(-c2cc(Oc3ccc(NC(=O)Nc4cc(C(C)(C)C)nn4-c4ccc(CO)cc4)c(F)c3)ccn2)cn1
[A] < 100 nM

[Q] Now give it for CCc1cc(NC(=O)Nc2ccc(Oc3ccnc(-c4cnn(CC)c4)c3)cc2F)n(-c2cccc(C#N)c2)n1 too.
[A] < 100 nM
